- TARGET_OR_TEST_SYSTEM: Sulfonylurea receptors; K-ATP channels (Homo sapiens, UniProt O60706+Q09428+Q14654+Q15842)
- TEST_DESCRIPTION: Evaluated for K-ATP activity in terms of stable twitch response through field-stimulated landrace pig detrusor assay
- Type: functional, Sus scrofa
- ASSAY_SETUP: target entry is the homologue from another species
ASSAY_ENDPOINT: EC50 (µM)
# output: bare number, implied unit µM

For O=C1CCCC2=C1C(c1ccc(F)c(Br)c1)C1=C(CCCS1(=O)=O)N2 (single isomer, unassigned; (+)) on Sulfonylurea receptors; K-ATP channels (Homo sapiens, UniProt O60706+Q09428+Q14654+Q15842), measured EC50 was 6.76

For CC1=C(C(=O)O)C(c2ccc(F)c(Br)c2)C2=C(CCS2(=O)=O)N1 (stereo not drawn) on Sulfonylurea receptors; K-ATP channels (Homo sapiens, UniProt O60706+Q09428+Q14654+Q15842), measured EC50 was 8.71

For CC1(C)CCC(=O)C2=C1NC1=C([C@H]2c2ccc(F)c(Br)c2)S(=O)(=O)CC1 on Sulfonylurea receptors; K-ATP channels (Homo sapiens, UniProt O60706+Q09428+Q14654+Q15842), measured EC50 was 2.69

For O=C1CCC2=C1C(c1csc([N+](=O)[O-])c1)C1=C(CCS1(=O)=O)N2 (stereo not drawn) on Sulfonylurea receptors; K-ATP channels (Homo sapiens, UniProt O60706+Q09428+Q14654+Q15842), measured EC50 was 0.661

For O=C1CCCC2=C1[C@H](c1ccc(F)c(Cl)c1)C1=C(CCS1(=O)=O)N2 on Sulfonylurea receptors; K-ATP channels (Homo sapiens, UniProt O60706+Q09428+Q14654+Q15842), measured EC50 was 0.214

For O=C1CCCC2=C1[C@H](c1ccc(C(F)(F)F)c(Br)c1)C1=C(CCS1(=O)=O)N2 on Sulfonylurea receptors; K-ATP channels (Homo sapiens, UniProt O60706+Q09428+Q14654+Q15842), measured EC50 was 9.55

For O=C1CCC2=C1[C@H](c1ccc(F)c(Br)c1)C1=C(CCCS1(=O)=O)N2 on Sulfonylurea receptors; K-ATP channels (Homo sapiens, UniProt O60706+Q09428+Q14654+Q15842), measured EC50 was 26.3

For O=S1(=O)CCC2=C1C(c1ccc(F)c(Br)c1)C=C(C(F)(F)F)N2 (stereo not drawn) on Sulfonylurea receptors; K-ATP channels (Homo sapiens, UniProt O60706+Q09428+Q14654+Q15842), measured EC50 was 2.24
